The reported numbers originate from patent US20240101645A1.

Exercise: for every item that follows, state its recorded Mean IC80, pSV neutralization.
Study System: SARS-CoV-2 S on pseudovirions (Wuhan Hu-1 / IL1/2020, last 18 amino acids removed) (SARS-CoV-2, UniProt P0DTC2 14-1273)
Assay Comment: cell-based or functional assay

Reported Mean IC80, pSV neutralization for COV_3000 (antibody, V domains shown) VH: EVQLVESGGGLVQPGRSLRLSCTASGFNFGDNSMSWVRQAPGKGLEWVGFISNRASGGTTEYAASVKGRFTISRDDSKSIAYLQMNSLKTEDTAMYFCTKDSYGHFPNYGFDIWGQGTMVTVSS VL: AVVMTQTPLSLSVTPGQPASISCKSSQSLIHTDGKTYHYWFLQRPGQPPQLLIYDVSNRVSGVPDRFSGSGSGTDFTLKISRVEADDVGVYYCMHSIQLPRAFGQGTKVEIT : what is it?
≥ 25 µg/ml

Reported Mean IC80, pSV neutralization for COV_3043 (antibody, V domains shown) VH: EVQVVESGGGLVQPGRSLRLSCTASGFNFGDNSMSWVRQAPGKGLEWVGFISNRDHSGTTDYAASVKGRFTISRDDSKSIAYLQMNSLKTEDTAIYYCIRDSYGHFPNYGFDVWGQGTMVTVSS VL: DVVMTQTPLSLSVTPGQPASISCKCSQSLIHSDGKTYQYWFLQRPGQPPQLLIYDVSNRVSGVPDRFSGSGSGTDFTLKISRVEAEDVGVYYCMHSINFPRTFGQGTKVEIT : what is it?
≥ 25 µg/ml

Reported Mean IC80, pSV neutralization for COV_3037 (antibody, V domains shown) VH: EVQLVESGGGLVQPGRSLRLSCTASGFNFGDNSMSWVRQAPGKGLEWVGFISNRAYGGTTEYAASVKGRFSISRDDSKSIAYLQMNSLRTEDTAMYFCTKDSYGHFPNYGFDIWGQGTMVIVSS VL: VVVMTQTPLSLSVTPGQPASISCKSSQSLIHTDGKTYHYWFLQRPGQPPQLLIYDVSNRVSGVPDRFSGSGSGTDFTLKISRVEADDVGVYYCMHSIQLPRAFGQGTKVEIT : what is it?
≥ 25 µg/ml

Reported Mean IC80, pSV neutralization for COV_2103 (antibody, V domains shown, human IgG1) VH: EVQLVESGGGVVQPGRSLRLSCGASGFTFSSYGIHWVRQAPGKGLDWVAVIWHDGSQKYYGDSVKGRFTISRDNSKNTLYLQMNRLRAEDTAVYYCARDSGDDYDSSGYPIGNAFDLWGQGTMVTVSS VL: DIQMTQSPSTLSASVGDRVTITCRASQFINSWLAWYQQKPGKAPKLLIYKASSLETGVPSRFSGSGSGTEFTLTISSLQPDDFATYYCQQYNTYSFTFGPGTKVDIK : what is it?
≥ 25 µg/ml

Reported Mean IC80, pSV neutralization for COV_2174 (antibody, V domains shown, human IgG1) VH: EVQLAESGGGLVKPGGSLRLSCAASGFTFSDYYMSWIRQAPGKGLEWVSYISSSGSTIYYADSVKGRFTISRDNAKNSLYLQMNSLRAEDTAVYYCARDWSVVVVPAAPAVDVWGQGTTVTVSS VL: DIQMTQSPSSLSASVGDRVTITCRASQGISNYLAWFQQKPGKAPKSLIYAASSLQSGVPSKFSGSGSGTDFTLTISSLQPEDFATYYCQQYNSYPLTFGGGTKVEIKR : what is it?
2.04 µg/ml
